Target or test system: mouse CB1R (Mus musculus)
Construct: membranes (10 μg protein) from either ICR mouse cerebellum mice; from tissue; host or cells: cerebellum membranes of ICR mice
Experiment summary: [35S]GTPγS binding assay in mouse cerebellum membranes
Type: biochemical
Settings: Tables 4-6; CP55,940 concentration not stated; mean (95% confidence interval); read-out: mCB1R [35S]GTPγS binding assay IC50
Assign pIC50 to each entry below.
Give bare numbers, as −log10 of the molar value.

Consider the reported pIC50 for these compounds:
Cc1ccc(CCNC(=O)Nc2ccc(Cl)cc2)o1 [Compound 79]
5.56
O=C(NCCc1cccc(C(F)(F)F)c1)Nc1ccc(Cl)cc1 [Compound 74]
6.12
Cc1cccc(CCNC(=O)Nc2ccc(Cl)cc2)c1 [Compound 60]
5.38
O=C(NCCc1ccc([N+](=O)[O-])cc1)Nc1ccc(Cl)cc1 [Compound 48]
6.11
O=C(NCCc1cccc(Cl)c1)Nc1ccc(Cl)cc1 [Compound 68]
6.25

Then this compound:
Given the compound O=C(NCCc1cccc(F)c1)Nc1ccc(Cl)cc1 [Compound 62] , what is its reported pIC50?
5.82

----------
Target or test system: mouse CB1R (Mus musculus)
Construct: membranes (10 μg protein) from either ICR mouse cerebellum mice; from tissue; host or cells: cerebellum membranes of ICR mice
Experiment summary: [35S]GTPγS binding assay in mouse cerebellum membranes
Type: biochemical
Could you please report measured IC50 for the items listed next?
Numbers only, in nM.

CN(C)c1cccc(CCNC(=O)Nc2ccc(Cl)cc2)c1
592

Now for a further compound.
Fill blank: measured IC50 of the compound CN(C)c1ccc(CCNC(=O)Nc2ccc(Cl)cc2)cc1 is ____.
1590

----------
Give measured pIC50 for each item. Keep answers brief.
Target or test system: hCB1R (Homo sapiens)
Experiment summary: Calcium mobilization assay, antagonist mode against CP55,940
Format: cell-based
Design: expressed in transfected cells; host or cells: CHO-RD-HGA16 cells (parental line from Molecular Devices)
Numbers only, as −log10 of the molar value.

COc1ccc(CCNC(=O)Nc2ccc(Cl)cc2)cc1OC
5.73
CC(C)(C)c1ccc(CCNC(=O)Nc2ccc(Cl)cc2)cc1
6.24
O=C(NCCc1ccccc1C(F)(F)F)Nc1ccc(Cl)cc1
6.84
COc1ccccc1CCNC(=O)Nc1ccc(Cl)cc1
5.79
Cc1cccc(CCNC(=O)Nc2ccc(Cl)cc2)c1
7.35

Each molecule below has a reported value. Please supply its pIC50.
1. O=C(NCCc1ccc(F)c(F)c1)Nc1ccc(Cl)cc1
2. COc1cccc(CCNC(=O)Nc2ccc(Cl)cc2)c1
3. O=C(NCCc1cccc(F)c1)Nc1ccc(Cl)cc1

1: 7.33; 2: 6.31; 3: 7.28

Parameter requested: pIC50. Apply to each item below.
1. O=C(NCCc1ccc(Cl)cc1Cl)Nc1ccc(Cl)cc1
2. O=C(NCCc1ccc(F)cc1)Nc1ccc(Cl)cc1

1: 6.76; 2: 6.97

----------
I'd be grateful if you could share measured pIC50 for these entries.
Target or test system: hCB1R (Homo sapiens, UniProt P21554)
Sequence (P21554 whole entry): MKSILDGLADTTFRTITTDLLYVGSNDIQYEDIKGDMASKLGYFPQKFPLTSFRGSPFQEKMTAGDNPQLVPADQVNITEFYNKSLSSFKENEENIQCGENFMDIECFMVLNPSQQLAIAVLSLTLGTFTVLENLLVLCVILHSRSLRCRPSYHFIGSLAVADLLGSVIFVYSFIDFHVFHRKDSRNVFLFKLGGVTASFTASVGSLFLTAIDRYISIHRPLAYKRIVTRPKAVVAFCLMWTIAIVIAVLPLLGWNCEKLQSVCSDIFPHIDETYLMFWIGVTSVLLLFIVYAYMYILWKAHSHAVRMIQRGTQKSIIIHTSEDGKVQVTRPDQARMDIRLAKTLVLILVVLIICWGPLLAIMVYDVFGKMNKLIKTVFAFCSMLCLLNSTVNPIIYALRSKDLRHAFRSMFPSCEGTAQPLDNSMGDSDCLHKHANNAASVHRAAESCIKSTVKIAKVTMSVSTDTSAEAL
Experiment summary: Calcium mobilization assay, antagonist mode against CP55,940
Format: cell-based
Design: expressed in transfected cells; host or cells: CHO-RD-HGA16 cells (parental line from Molecular Devices)
Answers are plain numbers, as −log10 of the molar value.

Known pIC50 results, listed for orientation:
O=C(NCCc1ccc(-c2ccccc2)cc1)Nc1ccc(Cl)cc1
6.05
O=C(NCCc1ccccc1)Nc1ccc(Cl)cc1
6.71
O=C(NCCc1ccc(C(F)(F)F)cc1)Nc1ccc(Cl)cc1
6.71
O=C(NCCc1cccc(Cl)c1)Nc1ccc(Cl)cc1
7.52
N#Cc1ccc(CCNC(=O)Nc2ccc(Cl)cc2)cc1
6.35
O=C(NCCc1ccccc1Cl)Nc1ccc(Cl)cc1
6.63

Moving on to the next compound.
// pIC50 lookup, key: O=C(NCCc1cccc(C(F)(F)F)c1)Nc1ccc(Cl)cc1
7.49

----------
Target or test system: hCB1R (Homo sapiens, UniProt P21554)
Experiment summary: Real-time BRET CAMYEL cAMP assay in HEK293 cells expressing human CB1
Format: cell-based
Parameters: expressed in transfected cells; host or cells: HEK293 cells stably transfected with human CB1, transiently transfected with pcDNA3L-His-CAMYEL sensor
Settings: [CP] = 100 nM; forskolin-stimulated cAMP
Decision: IC50 beneath 2000 nM gives fulfilled; IC50 meeting or exceeding 2000 nM gives not fulfilled.

Record excerpt, results attached:
O=C(Nc1ccc(Cl)cc1)Nc1ccc(-c2ccncc2)s1
fulfilled
O=C(Nc1ccc(Cl)cc1)Nc1ccc(-c2ccc(F)cc2F)s1
not fulfilled
O=C(Nc1ccc(Cl)cc1)Nc1ccc(-c2cc(Cl)cc(Cl)c2)s1
not fulfilled
O=C(Nc1ccc(Cl)cc1)Nc1ccc(-c2ccccc2)s1
fulfilled

Just wondering, is IC50 of COc1ccc(-c2ccc(NC(=O)Nc3ccc(Cl)cc3)s2)cc1 below 2000 nM?
fulfilled

Lookup COc1cccc(-c2ccc(NC(=O)Nc3ccc(Cl)cc3)s2)c1
not fulfilled

Moving on to O=C(Nc1ccc(Cl)cc1)Nc1ccc(-c2ccccc2Cl)s1
fulfilled

Please answer likewise for CN(C)c1cccc(-c2ccc(NC(=O)Nc3ccc(Cl)cc3)s2)c1
not fulfilled

----------
Target or test system: mouse CB1R (Mus musculus, UniProt P47746)
Construct: membranes (10 μg protein) from either ICR mouse cerebellum mice; from tissue; host or cells: cerebellum membranes of ICR mice
Sequence (P47746 whole entry): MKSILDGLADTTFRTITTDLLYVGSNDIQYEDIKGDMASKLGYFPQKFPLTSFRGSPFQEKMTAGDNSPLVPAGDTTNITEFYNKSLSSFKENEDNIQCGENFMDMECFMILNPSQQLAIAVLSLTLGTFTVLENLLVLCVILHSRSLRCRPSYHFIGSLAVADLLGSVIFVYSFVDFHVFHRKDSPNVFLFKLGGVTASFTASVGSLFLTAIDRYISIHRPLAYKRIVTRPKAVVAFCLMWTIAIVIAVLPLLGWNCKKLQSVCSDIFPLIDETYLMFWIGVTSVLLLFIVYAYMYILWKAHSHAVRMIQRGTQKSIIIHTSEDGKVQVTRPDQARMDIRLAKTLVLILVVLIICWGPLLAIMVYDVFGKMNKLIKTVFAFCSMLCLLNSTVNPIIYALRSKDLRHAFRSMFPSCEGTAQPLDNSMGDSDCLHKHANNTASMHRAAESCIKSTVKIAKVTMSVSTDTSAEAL
Experiment summary: [35S]GTPγS binding assay in mouse cerebellum membranes
Type: biochemical
Settings: mouse cerebellum membrane; [CP] = 1 uM; read-out: mCB1R GTPγS IC50
Record form. Attribute: IC50. Fill in for each entry.
Give the figure together with its unit, number first.

# annotated cases, reported IC50 shown
O=C(Nc1ccc(Cl)cc1)Nc1cccc(-c2cccc(N3CCCC3)n2)c1 [Compound 2, reference compound]
127 nM
CN(C)c1cccc(-c2ccc(NC(=O)Nc3ccc(Cl)cc3)s2)c1
3310 nM
COc1ccc(-c2ccc(NC(=O)Nc3ccc(Cl)cc3)s2)cc1
120 nM
O=C(Nc1ccc(Cl)cc1)Nc1ccc(-c2ccc(F)cc2)s1
145 nM
O=C(Nc1ccc(Cl)cc1)Nc1ccc(-c2ccc(F)cc2F)s1
48 nM

Below is a list of compounds. For each, state its recorded IC50.
1. COc1cccc(-c2ccc(NC(=O)Nc3ccc(Cl)cc3)s2)c1
2. O=C(Nc1ccc(Cl)cc1)Nc1ccc(-c2ccccc2Cl)s1
3. O=C(Nc1ccc(Cl)cc1)Nc1ccc(-c2cc(Cl)cc(Cl)c2)s1

["1620 nM", "204 nM", "2400 nM"]

----------
Experiment summary: Metabolic stability in rat liver microsomes
Assay type: in vitro ADME
Settings: pH 7.4, NADPH, mean ± SD, read-out: Half-life
Test readout: half-life (min)
Answers are plain numbers, in min.

O=C(NCCc1cccc(Cl)c1)Nc1ccc(Cl)cc1
9.6

Consider now this further molecule.
Which half-life is reported for this molecule? O=C(Nc1ccc(Cl)cc1)Nc1ccc(-c2ccc(F)cc2F)s1
72

----------
Target or test system: mouse CB1R (Mus musculus)
Construct: membranes (10 μg protein) from either ICR mouse cerebellum mice; from tissue; host or cells: cerebellum membranes of ICR mice
Experiment summary: [35S]GTPγS binding assay in mouse cerebellum membranes
Assay type: biochemical
Settings: mouse cerebellum membrane; [CP] = 100 nM; read-out: mCB1R GTPγS IC50
For each record, write down the corresponding IC50.
One number for each entry, in µM.

O=C(Nc1ccc(Cl)cc1)Nc1cccc(-c2cccc(N3CCCC3)n2)c1 [Compound 2, reference compound]
0.244
O=C(Nc1ccc(Cl)cc1)Nc1ccc(-c2cc(Cl)cc(Cl)c2)s1
3.31
COc1ccc(-c2ccc(NC(=O)Nc3ccc(Cl)cc3)s2)cc1
0.11

Give measured IC50 for every item shown.
1. CN(C)c1cccc(-c2ccc(NC(=O)Nc3ccc(Cl)cc3)s2)c1
2. O=C(Nc1ccc(Cl)cc1)Nc1ccc(-c2ccc(F)cc2)s1
3. O=C(Nc1ccc(Cl)cc1)Nc1ccc(-c2ccccc2Cl)s1
4. COc1cccc(-c2ccc(NC(=O)Nc3ccc(Cl)cc3)s2)c1
5. O=C(Nc1ccc(Cl)cc1)Nc1ccc(-c2ccccc2)s1
6. O=C(Nc1ccc(Cl)cc1)Nc1ccc(-c2ccc(F)cc2F)s1

[3.47, 0.174, 0.363, 3.02, 0.063, 0.138]

----------
Assignment: determine reported IC50 for the given molecules.
Target or test system: hCB1R (Homo sapiens, UniProt P21554)
Experiment summary: [35S]GTPγS binding assay in HEK cells stably expressing human CB1R
Type: biochemical
Parameters: expressed in transfected cells; host or cells: HEK (HEK293) cells, membranes
Settings: [CP] = 100 nM, mean (95% confidence interval), read-out: hCB1R [35S]GTPγS binding assay IC50
Answers are plain numbers, in nM.

O=C(Nc1ccc(Cl)cc1)Nc1ccc(-c2cccc(Cl)c2)s1
553

Batch request: IC50 for each of the following molecules.
1. COc1ccccc1-c1ccc(NC(=O)Nc2ccc(Cl)cc2)s1
2. O=C(Nc1ccc(Cl)cc1)Nc1cc(-c2ccccc2)cs1
3. O=C(Nc1ccc(Cl)cc1)Nc1csc(-c2ccccc2)c1
4. O=C(Nc1ccc(Cl)cc1)Nc1ccc(-c2ccccc2)s1
5. O=C(Nc1ccc(Cl)cc1)Nc1ccc(-c2ccc(F)cc2F)s1
6. O=C(Nc1ccc(Cl)cc1)Nc1ccc(-c2ccc(Cl)cc2)s1
7. O=C(Nc1ccc(Cl)cc1)Nc1ccc(-c2ccccc2Cl)s1
8. O=C(Nc1ccc(Cl)cc1)Nc1ccc(-c2cccc(F)c2)s1

2020
667
888
524
84
774
272
425

Please state IC50 for every molecule in the list that follows.
1. COc1ccc(-c2ccc(NC(=O)Nc3ccc(Cl)cc3)s2)cc1
2. COc1cccc(-c2ccc(NC(=O)Nc3ccc(Cl)cc3)s2)c1
3. CS(=O)(=O)c1cccc(-c2ccc(NC(=O)Nc3ccc(Cl)cc3)s2)c1
4. O=C(Nc1ccc(Cl)cc1)Nc1ccc(-c2cc(Cl)cc(Cl)c2)s1

[449, 3280, 3230, 6330]

Source: patent US20220332695A1
